Overview of recorded half-life for various compounds
Test Name: Half-life in male Sprague-Dawley rat at 50 mg/kg, ip measured after 24 hrs by LC-MS/MS analysis
Format: ADME, organism-based
Experimental Conditions: in vivo

- Structure Smiles String: "CC(C)(C)OC(=O)N[C@@H](CCC(N)=O)C(=O)Oc1ccc2[nH]c3c(c2c1)CCN1C(=O)c2cc(F)ccc2N(c2cccc(F)c2)[C@H]31"
  half-life: "82.8 min"
- Structure Smiles String: "O=C1c2cc(F)ccc2N(c2cccc(F)c2)[C@@H]2c3[nH]c4ccc(O)cc4c3CCN12"
  half-life: "251 min"

----------
System: HGC-27
Test Name: Antiproliferative activity against human HGC-27 cells assessed as inhibition of cell growth incubated for 72 hrs by MTT assay
Type: functional, cell-based
Experimental Conditions: HGC-27, 72 h
pIC50: −log10 of the molar value.
Below is a list of entries, each paired with its recorded pIC50 value.

- Structure Smiles String: "CSCC[C@H](NC(=O)OC(C)(C)C)C(=O)Oc1ccc2[nH]c3c(c2c1)CCN1C(=O)c2cc(F)ccc2N(c2cccc(F)c2)[C@H]31"
  pIC50: 6.68
- Structure Smiles String: "CSCC[C@H](NC(=O)OC(C)(C)C)C(=O)Oc1ccc2[nH]c3c(c2c1)CCN1C(=O)c2cc(F)ccc2N(c2cccc(F)c2)[C@@H]31"
  pIC50: 4.54
- Structure Smiles String: "CC(C)(C)OC(=O)N[C@@H](Cc1c[nH]c2ccccc12)C(=O)Oc1ccc2[nH]c3c(c2c1)CCN1C(=O)c2cc(F)ccc2N(c2cccc(F)c2)[C@@H]31"
  pIC50: 4.59
- Structure Smiles String: "CC(C)(C)OC(=O)N[C@@H](COCc1ccccc1)C(=O)Oc1ccc2[nH]c3c(c2c1)CCN1C(=O)c2cc(F)ccc2N(c2cccc(F)c2)[C@@H]31"
  pIC50: 4.69
- Structure Smiles String: "CC(C)(C)OC(=O)N[C@@H](Cc1ccccc1)C(=O)Oc1ccc2[nH]c3c(c2c1)CCN1C(=O)c2cc(F)ccc2N(c2cccc(F)c2)[C@H]31"
  pIC50: 6.55
- Structure Smiles String: "CC(C)(C)OC(=O)N[C@@H](CCC(N)=O)C(=O)Oc1ccc2[nH]c3c(c2c1)CCN1C(=O)c2cc(F)ccc2N(c2cccc(F)c2)[C@@H]31"
  pIC50: 4.73

----------
Test Name: Stability of compound at pH 4.6 assessed as residual rate measured after 2 days
Assay type: physicochemical
Experimental Conditions: buffer, time 2 day, read-out: Stability

- Structure Smiles String: "CC(C)(C)OC(=O)N[C@@H](CCC(N)=O)C(=O)Oc1ccc2[nH]c3c(c2c1)CCN1C(=O)c2cc(F)ccc2N(c2cccc(F)c2)[C@H]31"
  remaining at 48 h: "67.8%"

----------
Test Name: Cmax in male Sprague-Dawley rat at 50 mg/kg, ip measured after 24 hrs by LC-MS/MS analysis
Assay type: ADME, organism-based
Experimental Conditions: in vivo
The entries below come with measured Cmax values attached.
Result Type: Cmax (ng/mL)

- Structure Smiles String: "CC(C)(C)OC(=O)N[C@@H](CCC(N)=O)C(=O)Oc1ccc2[nH]c3c(c2c1)CCN1C(=O)c2cc(F)ccc2N(c2cccc(F)c2)[C@H]31"
  Unit Abbrev: "ng/mL"
  Value Observed: 7080
- Structure Smiles String: "O=C1c2cc(F)ccc2N(c2cccc(F)c2)[C@@H]2c3[nH]c4ccc(O)cc4c3CCN12"
  Unit Abbrev: "ng/mL"
  Value Observed: 2190
